The values you see were collected from ChEMBL document CHEMBL5724914.

# measurement-description: The drug is tested on Z-009 corresponding to pig gut metagenome with ENA study accession number: PRJEB37062 and ENA sample accession number: ERS12561809 for biotransformation under anaerobic condition. The drug concentrations were measured over 9 timepoints collected between 0 and 24 hours of incubation by liquid-chromatography-coupled mass spectrometry (LC–MS); also: call rule not given here
# details: 2 µM
measured-quantity: Bacterial Biotransformation

Need Bacterial Biotransformation of CCc1nn(CCCN2CCN(c3cccc(Cl)c3)CC2)c(=O)n1CCOc1ccccc1 , thanks.
Compound NOT metabolized

Another: CC(=O)O[C@]1(C(C)=O)CC[C@H]2[C@@H]3C=C(Cl)C4=CC(=O)[C@@H]5C[C@@H]5[C@]4(C)[C@H]3CC[C@@]21C [CYPROTERONE ACETATE]
Compound metabolized

Also check CN1CCc2cccc3c2[C@H]1Cc1ccc(O)c(O)c1-3
Compound metabolized

Please do the same for Cc1cc2c(cc1S(N)(=O)=O)S(=O)(=O)CCC2 as well.
Compound NOT metabolized
